These data points were gathered from the supplement of paper PMC9170038.

Test system: MS2 coat protein
Test: apparent KD of MS2 coat protein; higher = weaker reporter binding
Settings: Eterna round: R107; input ligand: theophylline 20 uM
apparent KD of MS2 coat protein vs 60 nM: at or above is YES, below is NO.

Input line: API: above_or_equal(metric=apparent KD of MS2 coat protein, cutoff=60 nM) for item AGCAACAAGUCGGCCGCCACUCUUUUUACAUGAGGAUCACCCAUGUUUAUAUCAUGGUCUUAAUAGAGGACCGGGACAGUUGCAU [JR_ExcTryptoB_Sub006]
Output line: NO

Input line: In plain terms: is recorded apparent KD of MS2 coat protein at least 60 nM for GGUUACUCUACGGCCGCCACUGUAAAGUAAAUAUUAAUGUACAUGACAUGAGGAUCACCCAUGUACAGGACCGGGUAGUGUAACC [Tryptophan B 14] ?
Output line: NO

Input line: Quick check, apparent KD of MS2 coat protein >= 60 nM? CCCAAUUAGAUCUUUGGAAUUUUACUCGAAGGAGCGUCAUAGUAGGCAGGUAGGUCGCGAGACAUGAGGAUCACCCAUGUAGAGA [btbmullin]
Output line: NO

Input line: Tell me whether apparent KD of MS2 coat protein is at least 60 nM here: AUACCACCUUCGGCCGCCACUAUGUAUGGGUUCCCAACGUUGAAGGACAUGAGGAUCACCCAUGUUAGGACCGGGAAAAGUGCCU [theeternabot_exclusion_MS2_Trp_B_17]
Output line: YES

Input line: Please check the record ACGCCCAGGUAGGCUUAGUGGGAAAUGGAAGGAGCGCUGAUGCAAGCAGGUAGGUCGCCAACGAACAUGAGGAUCACCCAUGUAA [Same State - Arginine A (Freestyle 1)] and state if its apparent KD of MS2 coat protein is at or above 60 nM.
Output line: NO

Input line: Quick check: does AAUAACGUGAGGAUCACCCACGUAAAAGAUACCAGAGUGAUGAUCCUCCCUUGGCAGCUUAACGCUGAUUGAUUACAAUCAGCGA have apparent KD of MS2 coat protein greater than or equal to 60 nM?
Output line: YES
